In this section, each of the molecules is paired with its reported collision cross section (N2).
- CONDITION_LABEL: [M+H]+; instrument: DT; single field, calibrated with ESI Low Concentration Tuning Mix (Agilent)
Write the number in Å² without appending the unit.

Examples from the recorded data:
>  <MOLECULE>
NC(N)=NCCC[C@H](N)C(=O)O

>  <VALUE_UNIT>
Å²

>  <collision cross section (N2)>
136.6

$$$$
>  <MOLECULE>
Cc1cc2nc3[nH]c(=O)[nH]c(=O)c3nc2cc1C

>  <VALUE_UNIT>
Å²

>  <collision cross section (N2)>
153.1

$$$$
>  <MOLECULE>
Cc1cc2nc3c(=O)[nH]c(=O)nc-3n(C[C@H](O)[C@H](O)[C@H](O)COP(=O)(O)OP(=O)(O)OC[C@H]3O[C@@H](n4cnc5c(N)ncnc54)[C@H](O)[C@@H]3O)c2cc1C

>  <VALUE_UNIT>
Å²

>  <collision cross section (N2)>
249

$$$$

Could you now consider this next molecule?
Asked: Given the molecule Cc1ncc(C[n+]2csc(CCOP(=O)(O)O)c2C)c(N)n1 [THIAMINE MONOPHOSPHATE] , what is its reported collision cross section (N2)?
Given back: 171
